# EXPERIMENTAL_TARGET: Neu5Ac(a2-3)Gal(b1-4)GlcNAc(b1-6)[Gal(b1-3)]GalNAc
# TEST: glycan array binding signal (z-score within array); higher = stronger binding
# SETUP_CONDITIONS: glycan notation: IUPAC condensed, linker removed
The entries come from a sample that favours the strongest signals as a whole.

BINDER: Cohesin-hMARCO (Homo sapiens) (protein) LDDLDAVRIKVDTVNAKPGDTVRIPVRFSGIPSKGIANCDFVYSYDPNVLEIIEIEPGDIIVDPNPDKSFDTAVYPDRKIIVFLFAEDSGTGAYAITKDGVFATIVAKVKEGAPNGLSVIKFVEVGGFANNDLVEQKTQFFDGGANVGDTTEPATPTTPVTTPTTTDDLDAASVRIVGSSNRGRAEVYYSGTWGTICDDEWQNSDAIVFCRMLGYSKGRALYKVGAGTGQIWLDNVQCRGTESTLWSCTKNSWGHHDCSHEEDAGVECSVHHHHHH
glycan array binding signal (z-score): -0.481

src = the supplement of paper PMC8728848
